test system: MDA-MB-231; assay: Antiproliferative activity against human MDA-MB-231 cells assessed as growth inhibition after 48 hrs by SRB assay; type: functional; conditions: MDA-MB-231, 48 h, read-out: GI50
assayMetric: GI50 (nM)

# count of solved cases: 2
In [3]: df
Out[3]:
                            structuresmiles  observedmeasurement
0  O=c1c2ccccc2nc(-c2ccc(Cl)cc2)n1C/C=C/c1ccc(-c2cnc3ccccc3n2)cc1                  570
1  COc1cccc(-c2nc3ccccc3c(=O)n2C/C=C/c2ccc(-c3cnc4ccccc4n3)cc2)c1                 1250

I: Cc1nc2ccccc2c(=O)n1CCCc1ccc(-c2cnc3ccccc3n2)cc1
II: O=c1c2ccccc2nc(-c2ccccc2)n1C/C=C/c1ccc(-c2cnc3ccccc3n2)cc1
III: COc1cccc2c1C(=O)c1c(O)c3c(c(O)c1C2=O)C[C@@](O)(C(=O)CO)C[C@@H]3O[C@H]1C[C@H](N)[C@H](O)[C@H](C)O1
IV: COc1ccc(OC)c(-c2nc3ccccc3c(=O)n2C/C=C/c2ccc(-c3cnc4ccccc4n3)cc2)c1
V: O=c1c2ccccc2nc(-c2ccc([N+](=O)[O-])cc2)n1C/C=C/c1ccc(-c2cnc3ccccc3n2)cc1
Ordering: ascending GI50. // rank by listing labels in the order requested
III, V, I, IV, II
(III: 85 nM, V: 140 nM, I: 620 nM, IV: 1360 nM, II: 6400 nM)
